Where do these numbers come from? They come from patent US20220378931A1.

Target: T1, mouse serum albumin (mouse, UniProt P07724 25-608)
T1 construct: bought protein, amine-coupled to a CM5 chip; also called Mouse SA
Assay: SPR (Biacore 8K), albumin immobilised, 25 C, 1:1 kinetics
Protocol: Immobilization of serum albumin to a Series S Sensor Chip CM5 surface is performed according to the manufacturer's instructions (Amine Coupling Kit BR-1000-50). Briefly, carboxyl groups on the sensor chip surfaces (flow cell 1 and 2) are activated by injecting 70 μL of a mixture containing 75 mg/ml EDC and 11.5 mg/ml NHS at 10 μL/min. […]
In this section we review reported koff values for a set of binders.
Reply with just the number (in s⁻¹).

INS Analog 23 (other, single-chain insulin B-L2-A-L1-VHH fusion; also called Ex. 23) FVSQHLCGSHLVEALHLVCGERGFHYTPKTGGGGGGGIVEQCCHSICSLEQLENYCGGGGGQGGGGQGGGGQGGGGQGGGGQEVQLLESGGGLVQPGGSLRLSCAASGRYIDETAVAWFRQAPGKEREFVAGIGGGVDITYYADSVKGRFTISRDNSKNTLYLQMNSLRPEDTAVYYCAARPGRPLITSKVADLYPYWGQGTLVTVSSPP: 0.0093
INS Analog 26 (other, single-chain insulin B-L2-A-L1-VHH fusion; also called Ex. 26) FVSQHLCGSHLVEALRLVCGERGFFYTPKTGGGGGGGIVEQCCTSICSLYQLENYCGPGPQPGPQPGPQPGPQPGPQPGPQPGPQPGPQEVQLLESGGGLVQPGGSLRLSCAASGRYIDETAVAWFRQAPGKEREFVAGIGGGVDITYYADSVKGRFTISRDNSKNTLYLQMNSLRPEDTAVYYCAARPGRPLITSKVADLYPYWGQGTLVTVSSPP: 0.0069
INS Analog 28 (other, single-chain insulin B-L2-A-L1-VHH fusion; also called Ex. 28) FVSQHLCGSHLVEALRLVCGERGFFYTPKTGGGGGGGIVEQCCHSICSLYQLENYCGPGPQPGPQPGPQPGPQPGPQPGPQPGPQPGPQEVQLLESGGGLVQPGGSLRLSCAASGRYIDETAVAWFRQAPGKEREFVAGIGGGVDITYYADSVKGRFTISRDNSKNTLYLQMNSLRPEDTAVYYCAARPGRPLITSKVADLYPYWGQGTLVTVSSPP: 0.006

-- ask State its koff for this binder: INS Analog 27 (other, single-chain insulin B-L2-A-L1-VHH fusion; also called Ex. 27) FVSQHLCGSHLVEALRLVCGERGFFYTPKTGGGGGGGIVEQCCHSICSLYQLENYCGGGGGQGGGGQGGGGQGGGGQGGGGQEVQLLESGGGLVQPGGSLRLSCAASGRYIDETAVAWFRQAPGKEREFVAGIGGGVDITYYADSVKGRFTISRDNSKNTLYLQMNSLRPEDTAVYYCAARPGRPLITSKVADLYPYWGQGTLVTVSSPP
-- reply 0.0079

-- ask Consider the binder INS Analog 25 (other, single-chain insulin B-L2-A-L1-VHH fusion; also called Ex. 25) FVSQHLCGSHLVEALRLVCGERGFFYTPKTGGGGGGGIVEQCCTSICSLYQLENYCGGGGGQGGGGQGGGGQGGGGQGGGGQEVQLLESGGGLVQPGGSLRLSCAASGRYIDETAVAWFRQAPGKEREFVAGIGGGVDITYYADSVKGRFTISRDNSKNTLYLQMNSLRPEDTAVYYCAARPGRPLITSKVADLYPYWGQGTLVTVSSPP and give its recorded koff.
-- reply 0.0092

-- ask Supply koff value. Item: INS Analog 29 (other, single-chain insulin B-L2-A-L1-VHH fusion; also called Ex. 29) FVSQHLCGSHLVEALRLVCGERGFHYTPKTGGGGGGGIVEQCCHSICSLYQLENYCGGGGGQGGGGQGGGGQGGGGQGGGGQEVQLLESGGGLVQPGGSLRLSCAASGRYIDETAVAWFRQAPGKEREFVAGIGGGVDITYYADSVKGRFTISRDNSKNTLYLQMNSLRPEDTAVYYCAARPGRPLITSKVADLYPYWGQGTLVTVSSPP
-- reply 0.0087

-- ask Tell us which koff value is on record for INS Analog 30 (other, single-chain insulin B-L2-A-L1-VHH fusion; also called Ex. 30) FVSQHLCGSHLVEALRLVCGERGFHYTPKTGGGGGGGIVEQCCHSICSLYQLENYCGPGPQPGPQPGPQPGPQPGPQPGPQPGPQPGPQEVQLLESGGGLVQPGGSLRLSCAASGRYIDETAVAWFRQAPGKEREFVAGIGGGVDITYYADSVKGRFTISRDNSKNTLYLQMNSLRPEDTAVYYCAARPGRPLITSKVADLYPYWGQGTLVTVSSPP
-- reply 0.0071

-- ask Determine from records and report koff for INS Analog 24 (other, single-chain insulin B-L2-A-L1-VHH fusion; also called Ex. 24) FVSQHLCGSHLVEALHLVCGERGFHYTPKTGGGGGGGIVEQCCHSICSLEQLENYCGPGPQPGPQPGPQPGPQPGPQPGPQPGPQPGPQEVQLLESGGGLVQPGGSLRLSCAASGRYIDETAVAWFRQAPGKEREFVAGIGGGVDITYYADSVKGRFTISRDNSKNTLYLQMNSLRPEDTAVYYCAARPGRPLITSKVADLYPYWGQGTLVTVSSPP
-- reply 0.0073
